- method-summary: Toxicity liver stage against HepG2, at 10uM
- Assay type: cell-based
- Parameters: test concentration 10 uM, cell line HepG2-A16-CD81EGFP
- condition-details: human, HepG2-A16-CD81EGFP cells; read-out: INHIBITION
Some compounds, each annotated with its measured cytotoxicity at 10 µM.

| compound | cytotoxicity at 10 µM [%] |
| --- | --- |
| Cc1ccc(C)c(CNC(=O)NC(C)(C(=O)O)c2ccco2)c1 (configuration not stated) | -10.8 |
| CSC(C)(C)CNC(=O)NC(c1nnc2n1CCC2)C(C)C (configuration not stated) | -19.9 |
| OCCNc1cc(N2CCN(Cc3ccccc3)C(CCO)C2)ncn1 (configuration not stated) | 6.45 |
| Cc1n[nH]c(C)c1NC(=O)CN(CC(O)c1ccc(F)cc1)C1CC1 (configuration not stated) | -7.3 |
| CCOC1CCCN(C(=O)c2[nH]nc(C)c2Br)C1 (configuration not stated) | 0.966 |
| CCN(CC1COc2ccccc2O1)C(=O)NCCCn1cncn1 (configuration not stated) | -9.27 |
| CC(C)NC(=O)NC[C@H]1OC[C@@H](NCc2ccccc2O)[C@@H]1O | -1.69 |

* * *

Some compounds, each annotated with its measured cytotoxicity at 10 µM.
- method-summary: Toxicity liver stage against HepG2, at 10uM
- Assay type: cell-based
- Set-up: test concentration 10 uM, cell line HepG2-A16-CD81EGFP
- condition-details: human, HepG2-A16-CD81EGFP cells; read-out: INHIBITION

| compound | value-unit | cytotoxicity at 10 µM |
| --- | --- | --- |
| O=C(Cn1c(=O)n(Cc2ccco2)c2ncccc21)NC1CC1 | % | -6.33 |
| CN(C)C1CN(C(=O)Nc2cccc(OC(F)F)c2)C1 | % | -0.317 |
| Cc1cc(C(F)(F)F)nc(CNC(=O)CCCN2CCCCC2)n1 | % | -53.1 |
| O=S1(=O)C[C@@H]2[C@H](C1)N(Cc1nc3ccccc3[nH]1)CCN2CC1CC1 | % | -133 |
| CC(O)CN(c1ccccc1)S(=O)(=O)c1cc(C(=O)O)cc2c1CCC2 (stereo not drawn) | % | 11.1 |
| COc1ccccc1OCC(=O)NS(=O)(=O)c1cc(F)ccc1F | % | -9.18 |
| COCCn1ccc(NCc2scnc2C)n1 | % | -2.9 |
| CN1C(=O)CCc2cc(NC(=O)C3CCCC3)ccc21 | % | -9.79 |
| COC(=O)N1CCC(NC(=O)Cn2cc(C)c3ccccc32)CC1 | % | -2.37 |
| COc1ccccc1CN1CC(O)CN(S(=O)(=O)C(C)C)CC1=O (stereo not drawn) | % | -12.4 |
| Cc1nc(CNC(=O)CCCc2cccs2)no1 | % | -46.8 |
| COc1ccccc1OCCNC1CCCN(Cc2noc(C)n2)C1 (stereo not drawn) | % | -19.1 |
| COc1cc(CCC(=O)N2CCC(c3cc4ncccc4[nH]3)CC2)on1 | % | 3.78 |
| COc1cccc(-c2nc(CNCCn3cccn3)cs2)c1 | % | 2.43 |
| CCCSc1ncc(Cl)c(C(=O)NC(CCSC)C(=O)O)n1 (stereo not drawn) | % | -6.44 |
| COCC(=O)N1CCCCC1c1nc(CN(C)C(C)=O)cc(N(C)C)n1 (stereo not drawn) | % | 3.37 |
| CC(NCC1CCN(CCO)CC1)c1ccc(F)c(Cl)c1 (stereo not drawn) | % | -9.04 |
| Cc1ccc(S(=O)(=O)N2C[C@H]3C[C@H](NC(=O)C(C)C)[C@H]3C2)cc1 | % | -4.59 |
